biological target: T1, human B7-H1 expressed on cells (human, UniProt Q9NZQ7 19-290); assay: FMAT, hybridoma supernatant, 293T cells expressing human B7-H1
T1 construct: whole, on cells; also called PD-L1; huB7-H1
T1 sequence (Q9NZQ7 19-290): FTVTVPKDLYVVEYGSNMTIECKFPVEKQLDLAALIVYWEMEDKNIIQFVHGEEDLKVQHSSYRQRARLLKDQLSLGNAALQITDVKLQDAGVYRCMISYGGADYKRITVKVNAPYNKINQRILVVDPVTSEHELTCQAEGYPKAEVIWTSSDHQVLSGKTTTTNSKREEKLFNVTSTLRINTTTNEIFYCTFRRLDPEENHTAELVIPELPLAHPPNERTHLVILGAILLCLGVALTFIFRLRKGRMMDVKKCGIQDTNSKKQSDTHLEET

{"binder": "2.9D10 (antibody, V domains shown, Tested as hybridoma supernatant or purified antibody; also called mAb 2.9D10) VH: EVQLVESGGGLVQPGGSLRLSCAASGFTFSSYWMSWVRQAPGKGLEWVANIKQDGGEQYYVDSVKGRFTISRDNAKNSLYLQMNSLRAEDTAVYYCARDWNYGYYDMDVWGQGTTVTVSS VL: EIVLTQSPGTLSLSPGERATLSCRASQSVSSNYLAWFQQKPGQAPRLLIFGTSSRATGIPDRFSGSGSGTDFTLTISRLEPEDFAVYYCQQYGSSIFTFGPGTKVDIK", "Count": 22}
